target: Recombinant human KIF18A (1-467 His-tagged) protein (Homo sapiens (Human), UniProt Q8NI77); test: KIF18A Enzyme Assay: microtubule-stimulated ATPase activity (ADP-Glo); conditions: read-out: KIF18A ATPase IC50; 30 nM KIF18A, 30 μg/mL pig microtubules, ATP at Km 75 μM, ADP-Glo luminescence
Sequence (Q8NI77 1-467): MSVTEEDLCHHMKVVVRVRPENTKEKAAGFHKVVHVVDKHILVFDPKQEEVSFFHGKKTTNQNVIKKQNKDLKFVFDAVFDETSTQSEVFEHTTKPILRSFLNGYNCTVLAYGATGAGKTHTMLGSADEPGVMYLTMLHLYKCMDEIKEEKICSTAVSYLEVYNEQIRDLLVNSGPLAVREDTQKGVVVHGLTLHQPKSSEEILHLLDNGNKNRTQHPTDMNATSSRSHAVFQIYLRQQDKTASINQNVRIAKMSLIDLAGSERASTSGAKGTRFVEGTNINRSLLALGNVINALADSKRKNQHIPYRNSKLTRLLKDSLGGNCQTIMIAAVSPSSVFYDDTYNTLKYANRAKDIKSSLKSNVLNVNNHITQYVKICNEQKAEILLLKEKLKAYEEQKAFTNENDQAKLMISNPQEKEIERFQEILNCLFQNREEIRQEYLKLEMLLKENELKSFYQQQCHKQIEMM
Sequence (P02550 whole entry partner): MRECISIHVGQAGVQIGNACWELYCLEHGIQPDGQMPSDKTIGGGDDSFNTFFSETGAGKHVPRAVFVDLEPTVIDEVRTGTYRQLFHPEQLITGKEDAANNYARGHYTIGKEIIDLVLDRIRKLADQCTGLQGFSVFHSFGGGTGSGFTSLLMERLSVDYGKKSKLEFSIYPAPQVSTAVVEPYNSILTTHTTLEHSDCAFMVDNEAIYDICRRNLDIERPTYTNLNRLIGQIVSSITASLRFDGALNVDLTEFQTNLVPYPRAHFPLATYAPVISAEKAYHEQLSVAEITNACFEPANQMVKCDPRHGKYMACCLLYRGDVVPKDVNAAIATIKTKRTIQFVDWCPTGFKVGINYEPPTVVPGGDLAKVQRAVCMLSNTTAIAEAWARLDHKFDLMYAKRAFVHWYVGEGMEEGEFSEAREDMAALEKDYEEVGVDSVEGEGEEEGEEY
Sequence (P02554 whole entry partner): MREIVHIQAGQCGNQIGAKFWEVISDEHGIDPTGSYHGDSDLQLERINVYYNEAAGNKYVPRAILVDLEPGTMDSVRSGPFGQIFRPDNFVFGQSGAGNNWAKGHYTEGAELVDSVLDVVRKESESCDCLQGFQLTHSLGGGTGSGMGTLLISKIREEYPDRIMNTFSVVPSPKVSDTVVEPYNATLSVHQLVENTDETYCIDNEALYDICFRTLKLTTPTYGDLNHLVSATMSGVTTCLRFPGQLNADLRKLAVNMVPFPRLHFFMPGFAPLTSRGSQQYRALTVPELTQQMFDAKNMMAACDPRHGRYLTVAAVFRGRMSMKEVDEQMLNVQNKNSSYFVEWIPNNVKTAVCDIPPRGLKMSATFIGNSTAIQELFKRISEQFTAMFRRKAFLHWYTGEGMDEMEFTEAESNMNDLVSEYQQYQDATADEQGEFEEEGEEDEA
Some compounds, each annotated with its measured pIC50.
pIC50 (log units): -log10 of the concentration in mol/L.

Solved cases (6 shown):
compound: Cc1cc(NC(=O)c2ccc(S(=O)(=O)[C@@H]3CCC[C@H]3O)cc2N2CCC3(CC2)CC3)nc(N2CCC(F)(F)CC2)n1 [Example 14-9]
pIC50: 6.71
--
compound: Cc1cc(NC(=O)c2ccc(NS(=O)(=O)C3COC3)cc2N2CCC3(CC2)CC3)nc(N2CC(F)(F)C2)n1 [Example 11-23]
pIC50: 7.31
--
compound: Cc1cc(NC(=O)c2ccc(NS(=O)(=O)CCO)cc2N2CCC3(CC2)CC3)nc(O[C@@H]2CCOC2)n1 [Example 11-80]
pIC50: 6.93
--
compound: N=S(=O)(c1ccc(C(=O)Nc2ccnc(N3CCC(F)(F)CC3)c2)c(N2CCC3(CC2)CC3)c1)C1CC1 (centres unmarked) [Example 19-6]
pIC50: 7.38
--
compound: Cc1cc(NC(=O)c2ccc(NS(=O)(=O)CCO)cc2N2CCC3(CC2)CC3)nc(N2CCO[C@H](C)C2)n1 [Example 3]
pIC50: 7.24
--
compound: Cc1cc(NC(=O)c2ccc(NS(=O)(=O)CCO)cc2N2CCC3(CC2)CC3)nc(N2CC(O)C2)n1 [Example 11-20]
pIC50: 7.32

Dear colleague, please send me the reported pIC50 for Cc1cc(NC(=O)c2ccc(NS(=O)(=O)CCO)cc2N2CCC3(CC2)CC3)nc(N2CCOC3(CC3)C2)n1 [Example 11-47] when you can.
7.02

Indicate the recorded pIC50 value for this compound: Cc1cc(NC(=O)c2ccc(NS(=O)(=O)CCO)cc2N2CCC3(CC2)CC3)c(F)c(N2CCC(F)(F)CC2)n1 [Example 11-64]
7.27

Return pIC50 (reported value) for this compound: Cc1cc(NC(=O)c2ccc(S(C)(=O)=O)cc2N2CCC3(CC2)CC3)nc(NC[C@H](C)O)n1 [Example 1-5]
6.35

State its pIC50 for this compound: Cc1cc(NC(=O)c2ccc(S(=N)(=O)C3COC3)cc2N2CCC3(CC2)CC3)nc(N2CCC(F)(F)CC2)n1 (centres unmarked) [Example 19-1]
6.79

Look up and report measured pIC50 for this entry: Cc1cc(NC(=O)c2ccc(NS(=O)(=O)C[C@@H](C)O)cc2N2CCC3(CC2)CC3)nc(N2CCO[C@H](C)C2)n1 [Example 6-27-1]
6.79

Name the recorded pIC50 of the compound listed here: Cc1cc(NC(=O)c2ccc(NS(=O)(=O)CCO)cc2N2CCC3(CC2)CC3)nc(N2CCC(C)(O)CC2)n1 [Example 11-38]
7.19

Identify measured pIC50 associated with Cc1cc(NC(=O)c2ccc(S(=O)(=O)C3CC3)cc2N2CCC3(CC2)CC3)nc(N2CCC(F)(F)CC2)n1 [Example 14-5]
6.08

Supply pIC50 value. Item: Cc1cc(NC(=O)c2ccc(NS(=O)(=O)[C@H](C)CO)cc2N2CCC3(CC2)CC3)nc(N2CCC(F)CC2)n1 [Example 6-25-2]
7.39
